- TARGET OR TEST SYSTEM: T1, cynomolgus monkey (cyno) complement protein C5 (cynomolgus monkey, UniProt A0A2K5U1T1 19-1676)
- T1 construct: also called cC5; cyno C5
- ASSAY EXPLANATION: SPR (Biacore)
PARAMETER MEASURED: pKd
Note on pKd: it is the negative log10 of concentration, concentration in mol/L.

Using the record for LCP0123 (VHH, llama anti-C5 VHH, tested as VHH-His fusion; not shown: His-tag) VHH: EVQLVESGGGLVQAGGSLTLSCAMSGGTRPFEDYVMAWFRQATGKEREFVATITWMGETTYYKDSVNGRFAISRDNAENTVALQMNSLEPEDTAVYFCAAHSRSSFSTSGGRYNPRPTEYDYWGQGTQVTVSS , report its pKd.
8.42

Using the record for LCP0143 (VHH, llama anti-C5 VHH, tested as VHH-His fusion; not shown: His-tag) VHH: EVQLVESGGGLVQAGGSLRLSCAAPEMGATINVMAWYRQAPGKQRELVARLPLDNNIDYGDFAKGRFTISRDITRNTVYLQMNNLKPDDTAVYYCNVLLSRQINGAYVHWGQGTQVTVSS , report its pKd.
9.78

Using the record for LCP0136 (VHH, llama anti-C5 VHH, tested as VHH-His fusion; not shown: His-tag) VHH: EVQLVESGGGLVQPGESLRLSCAISGFAFTDVGMSWVRQAPGKGLEWVSSISSGSSITTYSDSVKGRFTISRDNARNTLFLQMNSLKPEDTAVYYCGRYYCTGLGCHPRRDSALWGQGTQVTVSS , report its pKd.
9.50

Using the record for LCP0296 (VHH, llama anti-C5 VHH, tested as VHH-His fusion; not shown: His-tag) VHH: EVQLVESGGGVVQAGDSLTLTCTAPVGTISDYGMGWFRQAPGKEREFVASISWGGMWTDYADSVKGRFTISRDNDKNAVYLRMNSLNAEDTAVYYCGRGRMYRGIGNSLAQPKSYGYWGQGTQVTVSS , report its pKd.
8.81

The measurements presented in this section are drawn from patent US20250163138A1.
